Molecular target: T1, mIL2-his (mouse, UniProt P04351 21-169)
T1 construct: also called wild-type mouse IL-2 (with a his-tag); not shown: his-tag
T1 sequence (looked up): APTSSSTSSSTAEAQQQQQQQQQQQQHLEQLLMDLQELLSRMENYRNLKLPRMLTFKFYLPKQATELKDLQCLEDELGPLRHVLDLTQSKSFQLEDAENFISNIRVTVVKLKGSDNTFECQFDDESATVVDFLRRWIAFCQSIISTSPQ
Assay: BLI ForteBio, Ab on Protein A sensor
readout_label: kon (M⁻¹ s⁻¹)
Use M⁻¹ s⁻¹ as the unit, but write only the number.

Documented kon of S4B6 chimeric antibody (antibody, human IgG1, V domains shown, also called chS4B6) VH: EVQLQESGAELVRPGTSVKLSCKVSGDTITAYYLHFVRQRPGQGLEWIGRIDPEDDSTKYAENFKNKATFTADASSNTAYLRLSSLTSEDTATYFCTTVTFYYSRELRWFAYWGQGTLVTVSS VL: DIQVTQSPASLSASLEEIVTITCQASQDIGNYLSWYQQKLGKSPQLLIHSATSLADGVPSRFSGSRSGTQYSLKINRLQVEDTGIYYCLQHYSTPYTFGAGTKLELK : 183000

Hey, just so you know, these numbers are from patent US20250346644A1.
